Assay: LDH cell viability assay, keratinocytes
Format: cell-based, human
Conditions: human, HaCaT keratinocytes, 3 µg/mL, read-out: Cell Viability (%) ± SD
Experimental: Normal prostate epithelial cells (PNT2), two prostate cancer cell lines (Du145 and PC3), human keratinocytes (HaCaT), two melanoma cell lines (A375 and HTB140) and two colon cancer cell lines (HT29 and Caco-2) were treated with 3 at a concentration range 1.0–50.0 µg/mL. […] The examined compound (3) was diluted in the culture media from freshly made stock solution in MeOH (10 mg/mL) to the working concentrations (from 0 to 50 μg/mL). Cell viability was determined as described previously. […]
property.label: viability at 24 h, 3 µg/mL (%)
Enter your answer as a number in %; do not include the unit.

Exercise: Form field: reported viability at 24 h, 3 µg/mL of C=C1C(=O)O[C@H]2[C@H]1[C@@H](O)[C@H](OC(=O)CC(C)C)[C@H](C)CCC(=O)[C@](C)(O)[C@@H]2OC(=O)C(C)C
Solution: 74.5

Just for reference, paper PMC8347481 is where these values come from.
